Reported Percent Blocking of Ang-2FD Binding to Tie-2 by item:
Tested target: T1, Dimeric fibrinogen-like domain of mouse (Mus musculus) Ang-2 conjugated to human IgG1 (mouse (Mus musculus))
T1 construct: also called Dimeric Mouse Ang-2FD; Mouse Ang-2FD-hFc
T1 sequence (chain, as listed by the source limits assumed): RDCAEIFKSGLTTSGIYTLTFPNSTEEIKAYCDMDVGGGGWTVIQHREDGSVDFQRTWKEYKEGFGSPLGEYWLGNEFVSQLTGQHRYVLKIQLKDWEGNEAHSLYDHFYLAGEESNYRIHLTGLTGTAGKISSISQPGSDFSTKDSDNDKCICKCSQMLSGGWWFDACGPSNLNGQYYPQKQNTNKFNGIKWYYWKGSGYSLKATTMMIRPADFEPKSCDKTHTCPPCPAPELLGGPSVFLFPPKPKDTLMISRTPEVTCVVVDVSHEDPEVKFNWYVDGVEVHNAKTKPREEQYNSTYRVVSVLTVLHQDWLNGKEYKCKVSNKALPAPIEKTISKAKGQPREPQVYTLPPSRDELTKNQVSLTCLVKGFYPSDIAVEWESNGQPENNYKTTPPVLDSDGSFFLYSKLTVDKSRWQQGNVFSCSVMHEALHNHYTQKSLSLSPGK
Test protocol: blocking ELISA, 16.67 nM antibody, coated hTie-2-mFc
Endpoint: Percent Blocking of Ang-2FD Binding to Tie-2 (%)

[[record]]
binder = "H2M742N (antibody, V domains shown) VH: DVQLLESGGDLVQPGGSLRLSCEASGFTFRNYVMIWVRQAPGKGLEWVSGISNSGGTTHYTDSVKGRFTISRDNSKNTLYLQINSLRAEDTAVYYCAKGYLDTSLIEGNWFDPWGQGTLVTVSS VL: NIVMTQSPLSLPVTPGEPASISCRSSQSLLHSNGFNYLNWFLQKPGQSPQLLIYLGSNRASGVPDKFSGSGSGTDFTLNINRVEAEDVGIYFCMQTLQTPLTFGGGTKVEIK"
value = 98.6

[[record]]
binder = "H2M730N (antibody, V domains shown) VH: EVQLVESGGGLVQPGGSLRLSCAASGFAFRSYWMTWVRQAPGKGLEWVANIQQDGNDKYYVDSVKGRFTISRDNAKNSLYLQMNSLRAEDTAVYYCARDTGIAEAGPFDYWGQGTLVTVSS VL: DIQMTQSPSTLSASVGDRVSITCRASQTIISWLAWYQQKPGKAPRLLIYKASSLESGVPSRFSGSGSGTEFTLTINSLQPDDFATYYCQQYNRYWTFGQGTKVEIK"
value = 55

[[record]]
binder = "H2M750N (antibody, V domains shown) VH: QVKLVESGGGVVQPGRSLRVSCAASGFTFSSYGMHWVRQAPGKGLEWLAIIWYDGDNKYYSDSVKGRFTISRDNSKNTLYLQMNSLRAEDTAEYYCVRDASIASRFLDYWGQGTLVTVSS VL: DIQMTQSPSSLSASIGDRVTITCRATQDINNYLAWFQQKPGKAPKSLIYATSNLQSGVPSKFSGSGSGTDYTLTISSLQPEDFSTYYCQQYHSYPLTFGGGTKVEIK"
value = 53.7

